# assay-comment: sensitizers of A549 cells to miR-34 induction, primary screen, imaging, A549 dox-inducible miR-34, nuclei and caspase counts (AID 1347080)
# test-conditions: A549 miR-34 inducible, Hoechst nuclei count, 48 h; measured here: total cells with miR-34 induction; stronger effect = lower value
So basically, if cell count comes in under 9000 it's 1.0, and if it's 9000 or more it's 0.0.

Some solved entries appear below for comparison.
| compound | label |
| --- | --- |
| COCC(=O)Nc1c(I)c(C(=O)NCC(O)CO)c(I)c(C(=O)N(C)CC(O)CO)c1I (configuration not stated) | 1.0 |
| CC1(C)[C@@H](OC(=O)CCC(=O)O)CC[C@]2(C)[C@H]3C(=O)C=C4[C@@H]5C[C@@](C)(C(=O)O)CC[C@]5(C)CC[C@@]4(C)[C@]3(C)CC[C@@H]12 | 0.0 |
| NCCSSCCN | 0.0 |
| O=C1O[C@H]([C@@H](O)CO)C(O)=C1O | 1.0 |
| CCOC(=O)CCC(=O)O[C@H]1[C@H](O[C@@H]2[C@@H](C)[C@H](O[C@H]3C[C@@](C)(OC)[C@@H](O)[C@H](C)O3)[C@@H](C)C(=O)O[C@H](CC)[C@@](C)(O)[C@H](O)[C@@H](C)C(=O)[C@H](C)C[C@@]2(C)O)O[C@H](C)C[C@@H]1N(C)C | 0.0 |
| O=C1CC[C@@H](C(=O)O)N1 | 1.0 |
| CO[C@H]1C[C@H](O[C@H]2[C@H](C)[C@@H](O[C@@H]3O[C@H](C)C[C@H](N(C)C)[C@H]3O)[C@@H](C)C[C@@]3(CO3)C(=O)[C@H](C)[C@@H](O)[C@@H](C)[C@@H](C)OC(=O)[C@@H]2C)O[C@@H](C)[C@@H]1O | 1.0 |
| Cc1cc(O)c2c(c1)C(=O)c1cccc(O)c1C2=O | 0.0 |
| CN1C(CC(=O)c2ccccc2)CCCC1CC(O)c1ccccc1 (configuration not stated) | 0.0 |
| C=C1CC[C@H](O)C/C1=C/C=C1\CCC[C@]2(C)[C@@H]([C@H](C)/C=C/[C@H](C)C(C)C)CC[C@@H]12 | 1.0 |

Problem: Dear colleague, could you confirm whether cell count of Cc1cc2c(cc1CC(=O)c1sccc1S(=O)(=O)Nc1onc(C)c1Cl)OCO2 falls below 9000? Thanks.
Result: 1.0

Problem: Dear colleague, could you confirm whether cell count of CC(=O)Oc1ccccc1C(=O)Oc1ccccc1C(=O)O falls below 9000? Thanks.
Result: 1.0

Problem: Dear colleague, could you confirm whether cell count of CCCCOCCOCCOCc1cc2c(cc1CCC)OCO2 falls below 9000? Thanks.
Result: 1.0

====

Overview of recorded GLP1 secretion stimulation for various molecules
# assay-comment: glucagon-like peptide 1 release enhancers, primary assay, NCI-H716 cell line, NPC library (AID 1117341)
# test-conditions: NCI-H716 cells, at 10 µM, stronger effect = higher value
// return numeric value only (unit: %, not printed)

| molecule | GLP1 secretion stimulation / % |
| --- | --- |
| C(=C\c1ccccc1)/CN1CCN(C(c2ccccc2)c2ccccc2)CC1 | -2.7 |
| Cc1[nH]c(=O)c(C#N)cc1-c1ccc2nccn2c1 | -0.6 |
| O=c1[nH]c(=O)n([C@H]2C[C@H](O)[C@@H](CO)O2)cc1I | -0.6 |
| N=C(N=C(N)N)N1CCOCC1 | 1.9 |
| CC(=O)OCC(=O)[C@@]1(OC(C)=O)[C@@H](C)C[C@H]2[C@@H]3C[C@H](F)C4=CC(=O)C=C[C@]4(C)[C@@]3(F)[C@@H](O)C[C@@]21C | 1.7 |

GLP1 secretion stimulation reading for CNS(=O)(=O)CCc1ccc2[nH]cc(C3CCN(C)CC3)c2c1 : -4.5

GLP1 secretion stimulation reading for C[C@]12CCC(=O)C=C1[C@@H]1C[C@@H]1[C@H]1[C@@H]3[C@@H]4C[C@@H]4[C@@]4(CCC(=O)O4)[C@@]3(C)CC[C@@H]12 : 3.8

GLP1 secretion stimulation reading for O=C(Nc1ccc(C(=O)O)c(O)c1)c1ccccc1 : -0.4

GLP1 secretion stimulation reading for CCCCCCCCCCCCCCCC(=O)O : 0.3

GLP1 secretion stimulation reading for O=C(O)C(=O)Nc1cccc(-c2nn[nH]n2)c1 : -3.2

GLP1 secretion stimulation reading for O=C(O)Cc1ccc(OCCNC[C@H](O)c2ccccc2)cc1 : -0.5

GLP1 secretion stimulation reading for CC(O)Cn1cnc2c1c(=O)n(C)c(=O)n2C (stereo unspecified) : 1.8

GLP1 secretion stimulation reading for Cc1cc(NS(=O)(=O)c2ccc(N)cc2)no1 : 1.9

====

Overview of recorded nuclear beta-catenin stimulation for various compounds
# assay-comment: stimulators of nuclear beta-catenin in C2C12, primary screen, imaging, WNT3A-conditioned medium, mouse C2C12, NPC library (AID 1117326)
# test-conditions: stimulation, at 2 µM, stronger effect = higher value
// return numeric value only (unit: %, not printed)

| compound | quantitative-readout |
| --- | --- |
| COc1cc(NCc2ccc3nc(N)nc(N)c3c2C)cc(OC)c1OC | 71.7 |
| Cc1nc2ccccc2n1Cc1ccc(Cl)cc1 | 1.1 |
| Cc1ncc(CSSCc2cnc(C)c(O)c2CO)c(CO)c1O | -2.2 |
| O=C(O)Cc1cccc2ccccc12 | 0.6 |
| COc1cccc2c1C(=O)c1c(O)c3c(c(O)c1C2=O)C[C@@](O)(C(C)=O)C[C@@H]3O[C@H]1C[C@H](N)[C@H](O)[C@H](C)O1 | 102 |
| CC#C[C@]1(O)CC[C@H]2[C@@H]3CCC4=CC(=O)CCC4=C3[C@@H](c3ccc(N(C)C)cc3)C[C@@]21C | 4 |
| CC(C)(Oc1ccc(C2CC2(Cl)Cl)cc1)C(=O)O (stereo not drawn) | -1 |
| Cc1ccc(Cl)c(OCC(O)CNC(C)(C)C)c1 (stereo not drawn) | 0.1 |

Pending compound:
nuclear beta-catenin stimulation reading for NC(=O)c1cccnc1 : 7.7

====

# assay-comment: stimulators of nuclear beta-catenin in C2C12, primary screen, imaging, WNT3A-conditioned medium, mouse C2C12, NPC library (AID 1117326)
# test-conditions: stimulation, at 2 µM, stronger effect = higher value
value-kind: nuclear beta-catenin stimulation (%)
// return numeric value only (unit: %, not printed)

| compound | quantitative-readout |
| --- | --- |
| NC(N)=NCCC[C@H](N)C(=O)O | 2.5 |
| CC(C)(C)C(=O)OCOC(=O)[C@@H]1N2C(=O)[C@@H](NC(=O)[C@H](N)c3ccccc3)[C@H]2SC1(C)C | -1.3 |
| C=CCn1c(=O)n([C@@H]2O[C@H](CO)[C@@H](O)[C@H]2O)c2nc(N)[nH]c(=O)c21 | 2.4 |

Pending compound:
nuclear beta-catenin stimulation reading for CCCS(=O)c1ccc2nc(NC(=O)OC)[nH]c2c1 (centres undefined) : -1.8

====

# assay-comment: differential killing of epithelial or mesenchymal cells, primary screen, imaging, PC-3E GFP, TEM4-18 mCherry, co-culture (AID 1345086);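 note: normalised mesenchymal count divided by normalised epithelial count so high means epithelial killing; cells exposed to compound for 72 h before imaging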
# test-conditions: imaging cell counts, at 1 µM, actives lie on both sides, counts scaled to control wells, 1 = unselective
value-kind: red/green cell ratio (normalised)
Answer using only a numeral; do not append any unit.

| molecule | value-kind | quantitative-readout |
| --- | --- | --- |
| C#CCN(C)CCCOc1ccc(Cl)cc1Cl | red/green cell ratio (normalised) | 1 |
| CCCc1nn(C)c2c(=O)[nH]c(-c3cc(S(=O)(=O)N4CCN(C)CC4)ccc3OCC)nc12 | red/green cell ratio (normalised) | 0.98 |
| Cc1c(F)c(N2CCNC(C)C2)cc2c1c(=O)c(C(=O)O)cn2C1CC1 (centres undefined) | red/green cell ratio (normalised) | 1 |

Pending molecule:
red/green cell ratio (normalised) reading for COc1c2ccoc2nc2c(OC)c(OCC(O)C(C)(C)O)ccc12 (centres undefined) : 0.91

====

Overview of recorded cell count for various molecules
# assay-comment: sensitizers of A549 cells to miR-34 induction, primary screen, imaging, A549 dox-inducible miR-34, nuclei and caspase counts (AID 1347080)
# test-conditions: A549 miR-34 inducible, Hoechst nuclei count, 48 h; measured here: total cells with miR-34 induction; stronger effect = lower value
Answer using only a numeral; do not append any unit.

// below: answered molecules
| chemical-smiles | quantitative-readout |
| --- | --- |
| CCOC(=O)/C=C(C)/C=C/C=C(C)/C=C/c1c(C)cc(OC)c(C)c1C | 9250 |
| CN(C/C=C/c1ccccc1)Cc1cccc2ccccc12 | 8810 |
| NC(CO)(CO)CO | 8750 |

Pending molecule:
cell count reading for O=C(O)c1c2ccccc2cc2ccccc12 : 9100

====

# assay-comment: glucagon-like peptide 1 release enhancers, primary assay, NCI-H716 cell line, NPC library (AID 1117341)
# test-conditions: NCI-H716 cells, at 10 µM, stronger effect = higher value
value-kind: GLP1 secretion stimulation (%)
// return numeric value only (unit: %, not printed)

GLP1 secretion stimulation reading for CCOc1ccc(NC(=O)CC(C)O)cc1 (stereo not drawn) : -3.3

GLP1 secretion stimulation reading for CNC(=O)c1ccccc1Sc1ccc2c(/C=C/c3ccccn3)n[nH]c2c1 : 1

GLP1 secretion stimulation reading for CN1CCCC(CC2c3ccccc3Sc3ccccc32)C1 (stereo not drawn) : 20

GLP1 secretion stimulation reading for CC(C)(C)C(=O)C(Oc1ccc(Cl)cc1)n1ccnc1 (stereo not drawn) : 7.4

GLP1 secretion stimulation reading for O=[N+]([O-])c1cccc(S(=O)(=O)NCCNS(=O)(=O)c2cccc([N+](=O)[O-])c2)c1 : 3.1
